Where do the numbers come from? From patent US5185366A.

# procedure-details: Inhibition of cell growth (microscopic cell count)
# Assay type: cell-based, Buffalo green monkey
# assay-conditions: monkey, bgm-70 cells; 48 h, 10.0 μmol/L; read-out: % Reduction of cell growth
assay-endpoint: inhibition at 48 h, 10 µM (%)
The reply should contain only the number, in %.

Value lookup for inhibition at 48 h, 10 µM; key = O=C1OC2(CCCCC2)C(O)=C1O [Compound 4, 4-spiro-2-hydroxytetronic acid]
86

Can you share its inhibition at 48 h, 10 µM? I mean this compound: O=c1oc2ccccc2c(O)c1O [Compound 5, 3,4-dihydroxy-2H-1-benzopyran-2-one]
0.4

Dear colleague, I am looking for the recorded inhibition at 48 h, 10 µM of the following compound: `O=c1oc2ccc(O)cc2c(O)c1O`
2

Please report the recorded inhibition at 48 h, 10 µM for `O=c1oc2cc3c(cc2c(O)c1O)OCO3` .
8.1

###

# procedure-details: Inhibition of cell growth (microscopic cell count)
# Format: cell-based, Buffalo green monkey
# assay-conditions: monkey, bgm-70 cells; 24 h, 50.0 μmol/L; read-out: % Reduction of cell growth
assay-endpoint: inhibition at 24 h, 50 µM (%)
Could you give me the number in %? Just the number is fine.

Which inhibition at 24 h, 50 µM value belongs to O=c1oc2cc3c(cc2c(O)c1O)OCO3 [Compound 8] ?
54

Record request: inhibition at 24 h, 50 µM value, item O=c1oc2ccccc2c(O)c1O [Compound 5, 3,4-dihydroxy-2H-1-benzopyran-2-one]
5.9

Tell me the measured inhibition at 24 h, 50 µM of O=c1oc2ccc(O)cc2c(O)c1O [Compound 7] , please.
18.4

###

Please respond with reported inhibition at 1.6 µM for every item in the list.
# System: Buffalo green monkey kidney (BGM 70) cells
# procedure-details: [3H]-thymidine uptake cytotoxicity
# Assay type: cell-based
# assay-conditions: Chlorocebus sabaeus, 24 h, 1.6 μmol/L; read-out: % Inhibition of [3H]-Thymidine Incorporated
Express the reported value numerically, then name its unit.

Return reported inhibition at 1.6 µM; argument: O=c1oc2ccc(O)cc2c(O)c1O [Compound 7]
28.6%

I'd like to know its inhibition at 1.6 µM. The compound in question is CC1(c2ccc(Cl)cc2)OC(=O)C(O)=C1O (racemic) [Compound 1]
16.7%

Give the measured inhibition at 1.6 µM of O=c1oc2ccccc2c(O)c1O [Compound 5, 3,4-dihydroxy-2H-1-benzopyran-2-one] .
0%

Query (compound): O=c1oc2ccc(Cl)cc2c(O)c1O [Compound 6] ; field requested: inhibition at 1.6 µM
31.1%

###

# procedure-details: Inhibition of cell growth (microscopic cell count)
# Format: cell-based, Buffalo green monkey
# assay-conditions: monkey, bgm-70 cells; 24 h, 10.0 μmol/L; read-out: % Reduction of cell growth
# Experimental: a MASHII cell harvester and placed in a scintillation counter to determin incorporation of labelled compound and level of toxicity. BGM 70 cells ar seeded at a concentration of […] per well in a 24well tissue cultur plate. […] ^b BGM 70 cells are counted microscopically and comparisons are made. […] a letter code. The code is broken after the cells are counted. The effect of the compounds on the inhibition of cell growth is determined using BGM-70 cells grown in vitro. […]
assay-endpoint: inhibition at 24 h, 10 µM (%)
State just the number; it will be interpreted in %.

Any idea what inhibition at 24 h, 10 µM was measured for `O=c1oc2cc3c(cc2c(O)c1O)OCO3` ?
6.6

Name the recorded inhibition at 24 h, 10 µM for `O=c1oc2ccc(O)cc2c(O)c1O` .
1.6

If you can, please state the reported inhibition at 24 h, 10 µM value of O=C1OC2(CCCCC2)C(O)=C1O [Compound 4, 4-spiro-2-hydroxytetronic acid] .
88

For the compound O=c1oc2ccccc2c(O)c1O [Compound 5, 3,4-dihydroxy-2H-1-benzopyran-2-one] , what inhibition at 24 h, 10 µM is on record?
0

###

# Test system: Buffalo green monkey kidney (BGM 70) cells
# procedure-details: [3H]-thymidine uptake cytotoxicity
# Type: cell-based
# assay-conditions: at concentrations of 10 μM or less
assay-endpoint: toxicity ([3H]-thymidine uptake and/or cell growth)

O=C1OC2(CCCCC2)C(O)=C1O [Compound 4, 4-spiro-2-hydroxytetronic acid]    display toxicity
O=c1oc2ccc(Cl)cc2c(O)c1O    display toxicity
CC1(c2ccc(Cl)cc2)OC(=O)C(O)=C1O (racemic)    display toxicity
O=c1oc2ccc(O)cc2c(O)c1O    display toxicity

###

# procedure-details: Inhibition of cell growth (microscopic cell count)
# Assay type: cell-based, Buffalo green monkey
# assay-conditions: monkey, bgm-70 cells; 24 h, 1.6 μmol/L; read-out: % Reduction of cell growth
Would you kindly list inhibition at 24 h, 1.6 µM for each of these compounds?
I only need the number, in %, no unit after it.

So what's the measured inhibition at 24 h, 1.6 µM for this one? CC1(c2ccc(Cl)cc2)OC(=O)C(O)=C1O (racemic) [Compound 1]
54

Would you mind telling me what inhibition at 24 h, 1.6 µM value was observed for O=c1oc2ccc(Cl)cc2c(O)c1O [Compound 6] ?
20

Item under review: O=C1OC2(CCCCC2)C(O)=C1O [Compound 4, 4-spiro-2-hydroxytetronic acid] . Reported inhibition at 24 h, 1.6 µM?
21
